Molecular target: Full length human recombinant PIKFYVE (Homo sapiens (Human))
Sequence (Q9Y2I7 whole entry): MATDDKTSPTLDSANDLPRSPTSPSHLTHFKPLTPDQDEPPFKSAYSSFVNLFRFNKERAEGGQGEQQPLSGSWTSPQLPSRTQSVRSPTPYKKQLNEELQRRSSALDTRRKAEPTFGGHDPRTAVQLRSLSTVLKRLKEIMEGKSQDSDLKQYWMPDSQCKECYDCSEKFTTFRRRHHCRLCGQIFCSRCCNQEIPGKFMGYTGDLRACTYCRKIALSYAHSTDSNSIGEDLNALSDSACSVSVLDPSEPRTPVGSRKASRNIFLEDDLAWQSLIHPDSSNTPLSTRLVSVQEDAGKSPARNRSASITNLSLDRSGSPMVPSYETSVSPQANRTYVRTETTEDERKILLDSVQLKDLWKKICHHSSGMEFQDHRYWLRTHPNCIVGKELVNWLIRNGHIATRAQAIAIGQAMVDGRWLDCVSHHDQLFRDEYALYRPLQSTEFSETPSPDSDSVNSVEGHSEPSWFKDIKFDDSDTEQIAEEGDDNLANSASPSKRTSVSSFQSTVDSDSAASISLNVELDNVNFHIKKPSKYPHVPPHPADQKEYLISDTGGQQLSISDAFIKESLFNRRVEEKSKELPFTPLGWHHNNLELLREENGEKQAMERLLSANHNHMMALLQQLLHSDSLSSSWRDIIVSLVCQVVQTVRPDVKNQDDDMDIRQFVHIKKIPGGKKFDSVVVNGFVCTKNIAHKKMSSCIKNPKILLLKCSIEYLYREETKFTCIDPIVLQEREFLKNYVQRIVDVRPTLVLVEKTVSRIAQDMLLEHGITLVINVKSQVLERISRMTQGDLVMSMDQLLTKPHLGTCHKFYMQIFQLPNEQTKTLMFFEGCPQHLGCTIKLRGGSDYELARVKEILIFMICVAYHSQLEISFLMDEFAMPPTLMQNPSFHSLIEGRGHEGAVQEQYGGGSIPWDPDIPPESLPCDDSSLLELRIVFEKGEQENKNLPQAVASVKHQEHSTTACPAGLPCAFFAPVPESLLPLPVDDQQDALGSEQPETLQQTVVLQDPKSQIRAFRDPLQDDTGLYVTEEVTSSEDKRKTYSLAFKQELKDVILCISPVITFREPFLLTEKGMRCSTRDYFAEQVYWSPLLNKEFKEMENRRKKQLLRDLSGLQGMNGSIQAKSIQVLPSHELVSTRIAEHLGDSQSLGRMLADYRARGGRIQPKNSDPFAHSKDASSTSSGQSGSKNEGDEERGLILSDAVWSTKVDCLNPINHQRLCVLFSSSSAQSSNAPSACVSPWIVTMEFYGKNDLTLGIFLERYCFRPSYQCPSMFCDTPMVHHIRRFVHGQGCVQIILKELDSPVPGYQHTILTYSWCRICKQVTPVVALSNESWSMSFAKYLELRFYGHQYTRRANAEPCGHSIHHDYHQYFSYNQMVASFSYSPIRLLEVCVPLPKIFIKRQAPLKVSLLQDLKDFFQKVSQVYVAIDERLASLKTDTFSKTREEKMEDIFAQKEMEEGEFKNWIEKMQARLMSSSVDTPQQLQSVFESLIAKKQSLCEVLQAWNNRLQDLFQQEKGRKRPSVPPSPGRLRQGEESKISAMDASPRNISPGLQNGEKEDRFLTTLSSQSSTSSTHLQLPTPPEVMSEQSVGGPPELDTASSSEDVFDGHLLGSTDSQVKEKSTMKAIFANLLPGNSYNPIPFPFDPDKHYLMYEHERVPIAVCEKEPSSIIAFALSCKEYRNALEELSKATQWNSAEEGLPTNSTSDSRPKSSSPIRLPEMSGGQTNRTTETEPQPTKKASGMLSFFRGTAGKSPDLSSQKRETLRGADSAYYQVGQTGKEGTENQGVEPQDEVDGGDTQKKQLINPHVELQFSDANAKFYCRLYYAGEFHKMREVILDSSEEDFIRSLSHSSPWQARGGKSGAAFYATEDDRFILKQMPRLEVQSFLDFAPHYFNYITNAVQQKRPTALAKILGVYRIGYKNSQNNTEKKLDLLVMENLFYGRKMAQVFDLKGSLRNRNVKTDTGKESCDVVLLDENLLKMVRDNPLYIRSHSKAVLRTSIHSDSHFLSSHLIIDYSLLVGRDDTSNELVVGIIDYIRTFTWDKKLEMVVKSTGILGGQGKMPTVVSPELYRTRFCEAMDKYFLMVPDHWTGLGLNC
Experiment: Inhibition of PIKfyve (microfluidic electrophoresis kinase assay)
Details: 2 nM enzyme, PI3P/PS substrate, 3 h at room temperature, 12 concentrations
assayEndpoint: IC50 (µM)
// units = µM; emit number, no label

Examples with answers:
- compound: "c1cc(-c2cnn(-c3cc(N4CCOCC4)n4nc(-c5ccncc5)cc4n3)c2)ccn1 [Example 11]"
  targetOrTestSystem: "Full length human recombinant PIKFYVE (Homo sapiens (Human))"
  IC50 / µM: 2.6
- compound: "COCCNC(=O)c1cc2nc(-n3ccc(-c4cccc(C)c4)n3)cc(N3CCOCC3)n2n1 [Example 23]"
  targetOrTestSystem: "Full length human recombinant PIKFYVE (Homo sapiens (Human))"
  IC50 / µM: 0.0815
- compound: "Cc1cccc(-c2cnn(-c3cc(N4CCOCC4)n4nc(C(=O)NC5CCN(C)CC5)cc4n3)c2)c1 [Compound 55]"
  targetOrTestSystem: "Full length human recombinant PIKFYVE (Homo sapiens (Human))"
  IC50 / µM: 6.42
- compound: "Cn1ccc(-c2cc3nc(-n4ccc(-c5ccccc5)n4)cc(N4CCOCC4)n3n2)n1 [Compound 66]"
  targetOrTestSystem: "Full length human recombinant PIKFYVE (Homo sapiens (Human))"
  IC50 / µM: 0.104
- compound: "c1cc(-c2ccn(-c3cc(N4CCOCC4)n4nc(-c5ccncc5)cc4n3)n2)ccn1 [Example 15]"
  targetOrTestSystem: "Full length human recombinant PIKFYVE (Homo sapiens (Human))"
  IC50 / µM: 1.1

-- ask I'm curious: which IC50 was measured for Cc1cccc(-c2ccn(-c3cc(N4CCOCC4)n4nc(-c5cccnc5)cc4n3)n2)n1 [Compound 108] tested on Full length human recombinant PIKFYVE (Homo sapiens (Human))?
-- reply 1.35
